- Test system: HCT-116
- testProtocol: NCI tumour cell line growth inhibition, 48 h
The source made the active and inactive calls. No stated cut-off is given here; in the data, active = GI50 up to about 1.1 µM and inactive = higher. Where a SMILES comes first, the peptide text is derived from it. The star is where a group is joined. Boc = CC(C)(C)OC(=O)*; Bn = c1ccc(C*)cc1
Let's look at some molecules and their measured GI50.
measure: GI50

{"molecule": "Cc1cc(/N=N/c2c(O)ccc3ccccc23)ccc1/N=N/c1cccc([N+](C)(C)C)c1", "valueMeasured": "9.82 µM (inactive)"}
{"molecule": "CC(=O)NC(=O)/N=C1\\NCCC(=O)N1CCc1c[nH]c2ccccc12", "valueMeasured": "> 100 µM (inactive)"}
{"molecule": "O=C1c2ccccc2C(=O)c2c1ccc1conc21", "valueMeasured": "1.52 µM (inactive)"}
{"molecule": "COC(=O)C(CC(C)C)NC(=O)CNC(=O)C(Cc1ccc(OCc2ccccc2)cc1)NC(=O)C(COCc1ccccc1)NC(=O)OC(C)(C)C (centres undefined) (Boc-S(Bn)Y(Bn)GL-OMe; configuration not given here)", "valueMeasured": "> 100 µM (inactive)"}

* * *

- Tested on: NCI-H226
- testProtocol: NCI tumour cell line growth inhibition, 48 h
Calls of active or inactive are those of the source. Rule as the data show it: active = GI50 up to about 1.1 µM and inactive = higher.
Let's look at some compounds and their measured GI50.

{"compound": "Clc1ccc2nc(-c3ccccc3)nc(Cl)c2c1", "experimentalSystem": "NCI-H226", "GI50": "34 µM (inactive)"}
{"compound": "O=C(OCCCl)C1OC(n2cc(F)c(=O)[nH]c2=O)CC1O (stereo not given)", "experimentalSystem": "NCI-H226", "GI50": "> 100 µM (inactive)"}
{"compound": "CC(C)=CC(C)C(C(O)CCC1(c2ccoc2)OCCO1)S(=O)(=O)c1ccccc1 (stereo not given)", "experimentalSystem": "NCI-H226", "GI50": "> 100 µM (inactive)"}
{"compound": "CC1C(OC2O[C@@H]3O[C@@]4(C)CC[C@H]5[C@H](C)CC[C@@H](C2C)[C@@]35O4)O[C@@H]2O[C@@]3(C)CC[C@H]4[C@H](C)CC[C@@H]1[C@@]24O3 (stereo not given in full)", "experimentalSystem": "NCI-H226", "GI50": "> 50 µM (inactive)"}
{"compound": "COC(=O)CC(SCCO)SCCO", "experimentalSystem": "NCI-H226", "GI50": "> 100 µM (inactive)"}
{"compound": "CC(=O)OCc1cc(OC(C)=O)cnc1COC(C)=O", "experimentalSystem": "NCI-H226", "GI50": "> 100 µM (inactive)"}
{"compound": "C1=CC2C(C3CN(c4ccccc4)N=C13)C1C3C4C=CC21C=CC43 (stereo not given)", "experimentalSystem": "NCI-H226", "GI50": "> 100 µM (inactive)"}
{"compound": "CN(C)CCCNC(=O)c1c(-c2cccnc2)cnc2ccccc12", "experimentalSystem": "NCI-H226", "GI50": "> 100 µM (inactive)"}
{"compound": "COC1=CC(=O)[C@]2(C)[C@H](C1=O)C(C)[C@H]2c1ccc(OC)cc1 (stereo not given in full)", "experimentalSystem": "NCI-H226", "GI50": "> 100 µM (inactive)"}
{"compound": "SCc1ccc(-c2ccc(CS)cc2)cc1", "experimentalSystem": "NCI-H226", "GI50": "18.4 µM (inactive)"}
